B1: 2K2A (parent)
chain: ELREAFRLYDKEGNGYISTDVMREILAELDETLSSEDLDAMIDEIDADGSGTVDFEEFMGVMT

Variants of: B1
Protocol summary: folding stability dG (cDNA display proteolysis); higher = more stable
Stated conditions: PBS, room temperature
Rule: yes (1) for folding stability dG not less than 1 kcal/mol, no (0) for anything less.

Example cases with answers are listed next.
[[record]]
variant_label = "T52R"
group_label = "yes (1)"

[[record]]
variant_label = "D54K"
group_label = "yes (1)"

[[record]]
variant_label = "T52D"
group_label = "no (0)"

[[record]]
variant_label = "V53T"
group_label = "no (0)"


API: above_or_equal(metric=folding stability dG, cutoff=1 kcal/mol) for item `I45S`
no (0)

API: above_or_equal(metric=folding stability dG, cutoff=1 kcal/mol) for item `L38S`
no (0)

API: above_or_equal(metric=folding stability dG, cutoff=1 kcal/mol) for item `Y9E`
no (0)

API: above_or_equal(metric=folding stability dG, cutoff=1 kcal/mol) for item `R7M`
yes (1)

API: above_or_equal(metric=folding stability dG, cutoff=1 kcal/mol) for item `S34H`
no (0)

API: above_or_equal(metric=folding stability dG, cutoff=1 kcal/mol) for item `L33F`
yes (1)
